system: MAST1; conditions: concentration: 1 μM, replicates: in singlicate; n = 1;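 note: KINOMEscan kinase panel screen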
RESULT TYPE: %Inh (%)
Give your result in % as a bare value.

So what does the record say about %Inh for "CNC(=O)c1ccccc1Nc1nc(Nc2ccc(N3CCOCC3)cc2)ncc1Cl.Cl" ? 0

Follow-up entry: "Nc1ncc(-c2cccnc2)c2scc(-c3ccc4c(c3)CCN4C(=O)Cc3ccccc3)c12" 0

Field entry: COc1cccc(NC(=O)NC2CCN(c3ccnc(Nc4cc(OC)c(OC)c(OC)c4)n3)C2)c1 (centres unmarked) 0

Do the same for Cl.Cl.NCC(NCc1ccc(-c2ccnc3[nH]ccc23)s1)c1ccccc1 (centres unmarked) please 11

Also, "Nc1n[nH]c2cnc(-c3ccccc3)cc12" please. 14

"CN(C)S(=O)(=O)c1cc(-c2ccc3nccc(-c4cccc(S(N)(=O)=O)c4)c3c2)cnc1N" ? 0

Consider next the compound "CC(=O)N1CCN(c2ccc(Nc3nccc(-c4sc(C(C)C)nc4-c4cccc(NS(=O)(=O)c5cccc(Cl)c5)c4)n3)cn2)CC1" in the same way. 0

Further, for "Cc1ccc(C(=O)N2CC[C@@H](O)C2)cc1-n1c(C)cc(OCc2ccc(F)cc2F)c(Br)c1=O" ? 0

What do you have for "Oc1cc(Nc2ccnc3cc(I)ccc23)ccc1F" ? 20

One more compound: "COc1cccc(-c2ccc3c(NC(=O)C4CC4)n[nH]c3n2)c1" 42

Now give it for "CC(=O)Nc1nc2cnc(Nc3cc(NC(=O)c4cccc(C5(C#N)CC5)c4Cl)ccc3C)nc2s1" too. 23

Can you check "COc1cc(Nc2ncc3c(C)nc(-c4cc5ccccc5[nH]4)n3n2)cc(OC)c1OC" next? 13

Further, for "Cl.c1ccc(-c2ccc3c(Nc4ccc5[nH]ncc5c4)ccnc3c2)nc1" ? 0

Now try Cc1ccc(C)c(NC(=O)NC2CCN(c3ccnc(Nc4ccc(F)cc4)n3)C2)c1 (centres unmarked) . 35

Field entry: "Cc1ccc(S(=O)(=O)Nc2ccc(Nc3nccc(Nc4cccc5[nH]ncc45)n3)cc2)cc1" 7

Proceed to "COc1cc2c(cc1OCCN1CCNCC1)ncc1c3ccc(C#N)cc3[nH]c21" 83

Let us now turn to "O=C(Nc1ccccc1F)NC1CCN(c2ccnc(Nc3ccc(F)cc3)n2)CC1" 0
